System: eNOS promoter
runDescription: Activation of eNOS transcription (eNOS promoter-luciferase reporter gene assay)
Type: cell-based, human
settings: Homo sapiens, Endothelial cell, 18 h, EC50 of transcription induction ratio, determined graphically; human endothelial cell line, 18 h incubation; read-out: EC-50
pEC50: −log10 of the molar value.
Assign Criterion met whenever pEC50 does not fall below 5; assign Criterion not met whenever it does.

compound	discreteLabel
Cc1c(C(=O)NC2Cc3ccccc3C2)cnn1-c1ccc(Cl)cc1	Criterion not met
Nc1ccccc1C(=O)NC1Cc2ccccc2C1 [Compound 73, 2-AMINO-N-INDAN-2-YL-BENZAMIDE]	Criterion met
CCNc1ccc(C(=O)NC2Cc3ccccc3C2)cc1 [Compound 268, 4-ETHYLAMINO-N-INDAN-2-YL-BENZAMIDE]	Criterion met
O=C(NC1Cc2ccccc2C1)c1cccc(Br)c1 [Compound 382, 3-BROMO-N-INDAN-2-YL-BENZAMIDE]	Criterion not met
Cc1cc(Br)c(C(=O)NC2Cc3ccccc3C2)s1	Criterion met
CCOc1cccc(C(=O)NC2Cc3ccccc3C2)c1 [Compound 306, 3-ETHOXY-N-INDAN-2-YL-BENZAMIDE]	Criterion met
O=C(NC1Cc2ccccc2C1)c1c(F)cccc1Br [Compound 358, 2-BROMO-6-FLUORO-N-INDAN-2-YL-BENZAMIDE]	Criterion met
Cc1cc(C(=O)NC2Cc3ccccc3C2)c(C)s1	Criterion not met
Cc1cc(C(=O)NC2Cc3ccccc3C2)c(C)[nH]1	Criterion met

----------
Entries annotated with measured maximal fold induction
Test system: eNOS promoter
runDescription: Activation of eNOS transcription (eNOS promoter-luciferase reporter gene assay)
Type: cell-based, human
settings: Homo sapiens, 18 h, maximum transcription induction ratio (luciferase with compound / solvent alone); 18 h incubation; read-out: TIR (max)
observationType: maximal fold induction

molecule	assayResult
Cc1ccc(C(=O)NC2Cc3ccccc3C2)cc1Cl [Compound 34, 3-CHLORO-4-METHYL-N-INDAN-2-YL-BENZAMIDE]	3.4
O=C(NC1Cc2ccccc2C1)c1ccc(-n2ccnc2)cc1 [Compound 328, 4-IMIDAZOL-1-YL-N-INDAN-2-YL-BENZAMIDE]	2.4
O=C(NC1Cc2ccccc2C1)c1ccc(Br)cc1F [Compound 350, 4-BROMO-2-FLUORO-N-INDAN-2-YL-BENZAMIDE]	2.9
Cc1ccccc1C(=O)NC1Cc2ccccc2C1 [Compound 281, N-INDAN-2-YL-2-METHYL-BENZAMIDE]	3
Cc1ccc(C(=O)NC2Cc3ccccc3C2)cc1C [Compound 29, 3,4-DIMETHYL-N-INDAN-2-YL-BENZAMIDE]	3.8
O=C(NC1Cc2ccccc2C1)c1cccc(-c2ccccn2)c1 [Compound 433, N-INDAN-2-YL-3-PYRIDIN-2-YL-BENZAMIDE]	2.6
CC(C)(C)C(=O)Nc1cccc(C(=O)NC2Cc3ccccc3C2)c1	2.6

----------
System: eNOS promoter
runDescription: Activation of eNOS transcription (eNOS promoter-luciferase reporter gene assay)
Assay type: cell-based, human
settings: Homo sapiens, 18 h, maximum transcription induction ratio (luciferase with compound / solvent alone); 18 h incubation; read-out: TIR (max)
observationType: maximal fold induction

compound	assayResult
Cc1ccc2c(Cl)c(C(=O)NC3Cc4ccccc4C3)sc2c1 [Compound 332]	2
COc1ccc(C(=O)NC2Cc3ccccc3C2)cc1 [Compound 291, N-INDAN-2-YL-4-METHOXY-BENZAMIDE]	2.8
O=C(NC1Cc2ccccc2C1)c1ccc2c(c1)OC(F)(F)O2 [Compound 66]	2.7
O=C(NC1Cc2ccccc2C1)c1ccc(Oc2ccccc2)cc1 [Compound 32, 4-PHENOXY-N-INDAN-2-YL-BENZAMIDE]	4
O=C(NC1Cc2cccc(-c3ccc(F)cc3)c2C1)c1ccc(F)cc1 (centres unmarked) [Compound 398B]	3.46
Cc1ccc(F)c(C(=O)NC2Cc3ccccc3C2)c1 [Compound 266, 2-FLUORO-N-INDAN-2-YL-5-METHYL-BENZAMIDE]	2.5
Nc1ccccc1C(=O)NC1Cc2ccccc2C1 [Compound 73, 2-AMINO-N-INDAN-2-YL-BENZAMIDE]	4
O=C(NC1Cc2ccccc2C1)c1sc2cc(F)ccc2c1Cl [Compound 324]	1.7

----------
Entries annotated with measured maximal fold induction
Test system: eNOS promoter
runDescription: Activation of eNOS transcription (eNOS promoter-luciferase reporter gene assay)
Assay type: cell-based, human
settings: Homo sapiens, 18 h, maximum transcription induction ratio (luciferase with compound / solvent alone); 18 h incubation; read-out: TIR (max)

molecule	maximal fold induction
O=C(NC1Cc2ccccc2C1)c1ccc(F)c(Br)c1 [Compound 33, 3-BROMO-4-FLUORO-N-INDAN-2-YL-BENZAMIDE]	3.3
O=C(NC1Cc2cccc(I)c2C1)c1ccc(F)cc1 (stereo not shown) [Compound 408, 4-FLUORO-N-(4-IODO-INDAN-2-YL)-BENZAMIDE]	2.5
Cc1c(C(=O)NC2Cc3ccccc3C2)cnn1-c1ccc(Cl)cc1	2.5
O=C(NC1Cc2ccccc2C1)c1ccccc1Br [Compound 272, 2-BROMO-N-INDAN-2-YL-BENZAMIDE]	2.9
O=C(NC1Cc2ccccc2C1)c1ccc(C(F)(F)F)nc1	2
O=C(NC1Cc2ccccc2C1)c1cccc(Cl)c1 [Compound 283, 3-CHLORO-N-INDAN-2-YL-BENZAMIDE]	2.5
O=C(NC1Cc2ccccc2C1)c1c(F)cccc1Br [Compound 358, 2-BROMO-6-FLUORO-N-INDAN-2-YL-BENZAMIDE]	2.5
O=C(NC1Cc2ccc(OS(=O)(=O)c3ccccc3)cc2C1)c1ccc(F)cc1 (stereo not shown)	2.8
Cc1ccc2c(c1)CC(NC(=O)c1ccc(F)cc1)C2 (stereo not shown)	2.5
Cc1cccc2c1CC(NC(=O)c1ccc(F)cc1)C2 (single isomer, unassigned; (-))	2.8
CC(=O)Nc1cccc(C(=O)NC2Cc3ccccc3C2)c1Cl	2.5
CCOc1ccc(C(=O)NC2Cc3ccccc3C2)c(O)c1	2.2
O=C(NC1Cc2ccccc2C1)c1c(F)ccc(F)c1Cl	2.6
Nc1c(C(=O)NC2Cc3ccccc3C2)cnn1-c1ccccc1	2.5
CN(C)C(=O)C=Cc1cccc2c1CC(NC(=O)c1ccc(F)cc1)C2 (stereo not shown)	2.5
O=C(NC1Cc2ccccc2C1)c1cc(F)c(Cl)cc1Cl	2.8
O=C(NC1Cc2ccccc2C1)c1ccc(Br)cc1 [Compound 289, 4-BROMO-N-INDAN-2-YL-BENZAMIDE]	2.6
Nc1c(C(=O)NC2Cc3ccccc3C2)cnn1-c1ccccn1 [Compound 386A]	3.3
O=C(NC1Cc2ccccc2C1)c1ccccc1Cl [Compound 275, 2-CHLORO-N-INDAN-2-YL-BENZAMIDE]	3
Cc1ccc(C(=O)NC2Cc3ccccc3C2)c(O)c1	2.1
O=C(NC1Cc2ccccc2C1)c1ccc(F)c(F)c1F [Compound 320, 2,3,4-TRIFLUORO-N-INDAN-2-YL-BENZAMIDE]	3
O=C(NC1Cc2ccccc2C1)c1cccc(NC(=O)C2CC2)c1	2.4
Cc1ccc(C)n1-c1ccc(C(=O)NC2Cc3ccccc3C2)cc1	2.5
Cc1c(C(=O)NC2Cc3ccccc3C2)oc2ccccc12	2.4
Cc1cc(C(=O)NC2Cc3ccccc3C2)c(C)n1Cc1ccncc1	4
Cc1cc(Br)c(C(=O)NC2Cc3ccccc3C2)s1	2.9
O=C(C=Cc1cccc2c1CC(NC(=O)c1ccc(F)cc1)C2)Nc1ccc(Cl)cc1 (stereo not shown)	2.5
O=C(NC1Cc2ccccc2C1)c1ccc(-c2ccccn2)cc1 [Compound 436, N-INDAN-2-YL-4-PYRIDIN-2-YL-BENZAMIDE]	2.6
O=C(NC1Cc2cc(Br)c(Br)cc2C1)c1ccc(F)cc1	1.7
Cc1nc(C)c(C(=O)NC2Cc3ccccc3C2)s1	2.5
O=C(NC1Cc2ccccc2C1)c1ccc(Br)s1	2.4
Cc1cc(C)c(C(=O)NC2Cc3ccccc3C2)cn1 [Compound 189, N-INDAN-2-YL-4,6-DIMETHYL-NICOTINAMIDE]	2.2
CCOc1ccc(C(=O)NC2Cc3ccccc3C2)cc1 [Compound 26, 4-ETHOXY-N-INDAN-2-YL-BENZAMIDE]	3.8
O=C(NC1Cc2ccccc2C1)c1ccc(Br)cc1Cl [Compound 317, 4-BROMO-2-CHLORO-N-INDAN-2-YL-BENZAMIDE]	2.9

----------
System: eNOS promoter
runDescription: Activation of eNOS transcription (eNOS promoter-luciferase reporter gene assay)
Format: cell-based, human
settings: Homo sapiens, Endothelial cell, 18 h, EC50 of transcription induction ratio, determined graphically; human endothelial cell line, 18 h incubation; read-out: EC-50
Procedure: Measurement of activation of eNOS transcription Activation of eNOS transcription was measured as described in detail in Li et al. “Activation of protein kinase C alpha and/or epsilon enhances transcription of the human endothelial nitric oxide synthase gene”, Mol. Pharmacol. 1998; 53: 630-637. […] Induction of reporter gene expression in these cells was measured using a standard luciferase assay system (Promega, Cat. No E150) according to the manufacturer's instructions. […]
pEC50: −log10 of the molar value.
Assign 1 whenever pEC50 does not fall below 5; assign 0 whenever it does.

molecule	discreteLabel
O=C(NC1Cc2ccccc2C1)c1ccc(Cl)nc1Cl [Compound 203, 2,6-DICHLORO-N-INDAN-2-YL-NICOTINAMIDE]	0
O=C(NC1Cc2ccccc2C1)c1cccc(F)c1F [Compound 302, 2,3-DIFLUORO-N-INDAN-2-YL-BENZAMIDE]	0
Cc1cccc(C(=O)NC2Cc3ccccc3C2)c1F [Compound 249, 2-FLUORO-N-INDAN-2-YL-3-METHYL-BENZAMIDE]	0
Cc1ccc(F)c(C(=O)NC2Cc3ccccc3C2)c1Cl [Compound 346]	0
Cc1cc(C)c(C(=O)NC2Cc3ccccc3C2)c(C)c1 [Compound 282, N-INDAN-2-YL-2,4,6-TRIMETHYL-BENZAMIDE]	0
O=C(NC1Cc2ccccc2C1)c1ccc(Cl)cc1Br [Compound 331, 2-BROMO-4-CHLORO-N-INDAN-2-YL-BENZAMIDE]	1
CC(=O)Nc1cccc(C(=O)NC2Cc3ccccc3C2)c1Cl [Compound 267]	1
Cc1ccc2c(c1)CC(NC(=O)c1ccc(F)cc1)C2 (stereo not drawn) [Compound 5]	0
O=C(NC1Cc2ccccc2C1)c1ccc(Br)cc1F [Compound 350, 4-BROMO-2-FLUORO-N-INDAN-2-YL-BENZAMIDE]	1
Cc1ccc(F)c(C(=O)NC2Cc3ccccc3C2)c1 [Compound 266, 2-FLUORO-N-INDAN-2-YL-5-METHYL-BENZAMIDE]	0
